Reference source for all entries: PubChem BioAssay (NCI)

protocol text: NCI Yeast Anticancer Drug Screen. Data for the cln2 rad14 strain (AID 165)
assay setup: S. cerevisiae cln2 rad14 strain, at 50.0 µM (retest, dose inferred, filed as 5.0), stronger effect = higher value
Experimental: Growth inhibition of yeast strains with defined genetic alterations is measured as a screen for potential anti-cancer activity. Selected strains with alterations in DNA damage repair or cell cycle control were exposed to compounds and growth inhibition was measured relative to vehicle treated controls. The strain used in this assay is cln2 rad14
Compounds without any hit were thinned out: in the full panel of roughly 79,000, 15% have a hit.
Please mark Condition met if the recorded growth inhibition is equal to or greater than 50%, and Condition not met if it falls below.

{"columns": ["compound smiles", "label class"],
 "data": [
  ["CC1=NC2=NC(CCCC(=O)OCc3ccc(Cl)c(Cl)c3)=NC3=CC=CC(=N1)N32", "Condition not met"],
  ["CCOc1c(N=Nc2ccccc2OC)c(C)nn1C(N)=S", "Condition not met"],
  ["O=C(O)/C(=C\\c1ccc(F)cc1)c1ccccc1", "Condition not met"],
  ["O=[N+]([O-])/C(C(Cl)=C(Cl)Cl)=C(/Sc1ccccc1)N1CCOCC1", "Condition met"],
  ["N#Cc1c(-c2ccc(Cl)cc2)c(-c2ccc(Cl)cc2)nn(CCOC(=O)CCC(=O)O)c1=O", "Condition met"]
]}
